Sourced from patent US20100298213A1

test_system: human insulin receptor isoform with exon 11 (human) (UniProt P06213)
measurement_protocol: receptor binding, standard methods (FIG. 2)
Ends that are not written are not given here.
endpoint_name: relative affinity
Give bare numbers.

// known answers, use as guide
binder="Ac-SLEEEWAQIQCEVWGRGCPSESFYDWFERQLG (cysteine pairing not given here) [S671]" endpoint_name="relative affinity" test_result=98
binder="Ac-SLEEEWAQIQCEVWGRGCPSESFYGWFERQL (cysteine pairing not given here) [S667]" endpoint_name="relative affinity" test_result=127

Field request: relative affinity | item: {MeO‑PEG5000}-SLEEEWAQIECEVYGRGCPSESFYDWFERQL (cysteine pairing not given here) [S660]
58
